Assay Info: acute toxicity in mice
Experimental Context: mouse, in vivo, ip, intraperitoneal, formulated in aqueous PVP, read-out: Intraperitoneal LD50
From the text: ^a Compounds formulated in aqueous PVP ^b Route test compound administered
Please respond with reported LD50 for every item in the list.
One number for each entry, in mg/kg.

{"columns": ["Compound", "LD50, mg/kg"],
 "data": [
  ["[C-]#[N+]C(=CC1=C[C@@H](O)[C@@H](O)CC1)C(=CC1CCC(OC(=O)C=C(C)C)CC1)[N+]#[C-] (relative stereo) [Factor E]", 3.54]
]}

Here is the next item to consider.
*Q* Identify the reported LD50 for the following entry. [C-]#[N+]C(=CC1CCC(OC(=O)C=C(C)C)CC1)C(=CC1(OC(C)=O)C=CC(O)CC1)[N+]#[C-] (stereo not drawn) [Factor G]
*A* 7.94
